All values here come from ChEMBL document CHEMBL3352245.

molecular target: CYP2D6 (Homo sapiens, UniProt P10635); experiment: Time-dependent inhibition of CYP2D6 in human liver microsomes at 10 uM by LC-MS/MS analysis; type: ADME
Sequence (P10635 whole entry): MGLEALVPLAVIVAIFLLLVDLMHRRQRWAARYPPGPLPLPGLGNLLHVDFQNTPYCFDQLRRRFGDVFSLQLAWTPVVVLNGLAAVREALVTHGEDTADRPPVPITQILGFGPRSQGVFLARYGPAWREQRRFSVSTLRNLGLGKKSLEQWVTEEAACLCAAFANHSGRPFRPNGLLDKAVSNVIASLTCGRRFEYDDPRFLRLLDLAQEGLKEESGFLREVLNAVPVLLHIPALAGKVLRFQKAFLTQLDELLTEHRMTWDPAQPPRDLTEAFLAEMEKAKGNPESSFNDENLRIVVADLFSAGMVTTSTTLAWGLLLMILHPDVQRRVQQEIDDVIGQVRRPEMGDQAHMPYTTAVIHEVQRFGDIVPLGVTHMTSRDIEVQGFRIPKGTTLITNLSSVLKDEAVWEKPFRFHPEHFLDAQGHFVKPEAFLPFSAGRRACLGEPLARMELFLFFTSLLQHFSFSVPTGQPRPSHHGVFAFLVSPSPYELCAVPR
Value type: inhibition at 10 µM (%)

# Chemical string, Observed value
rows = [
    ("CCCNc1cc(NC(=O)c2ccccc2)cc(C(F)(F)F)c1", 35),
]

---

Below is a list of entries, each paired with its recorded microsomal CLint at 1 µM value.
assay: Intrinsic clearance in human liver microsomes at 1 uM in presence of NADPH; assay type: ADME; conditions: read-out: CLH

# Chemical string, Value unit, microsomal CLint at 1 µM
measured = [
    ("CC(C)Nc1cc(NC(=O)c2c(F)cccc2F)cc(C(F)(F)F)c1", "µL/min/mg", 73),
    ("CCNc1cc(NC(=O)c2c(F)cccc2F)cc(C(F)(F)F)c1", "µL/min/mg", 115),
    ("CCCNc1cc(NC(=O)c2ccccc2)cc(C(F)(F)F)c1", "µL/min/mg", 154),
    ("CCCNc1cc(NC(=O)c2c(F)cccc2F)cc(C(F)(F)F)c1", "µL/min/mg", 96),
]
